src = ChEMBL document CHEMBL6109109

Test: Cytotoxicity against mouse RCap cells assessed as reduction in cell viability measured after 72 hrs by MTT assay
Assay type: functional, cell-based
measured-parameter: pIC50
Reminder that pIC50 is minus the log10 of a molar concentration.

| molecule-smiles | quantitative-readout |
| --- | --- |
| COc1ccccc1[C@H]1[C@H](C(=O)O)[C@H](c2ccccc2OC)[C@H]1C(=O)Oc1cc(-c2ccc3c(c2)OCO3)ccc1-c1ccccc1 | 5.46 |

compound "O=C(O)[C@H]1[C@H](c2ccccc2)[C@H](C(=O)Oc2cc(-c3ccc4c(c3)OCO4)ccc2-c2ccccc2)[C@H]1c1ccccc1" , pIC50 observed: 4.91

====

Assay: Cytotoxicity against human WI-38 cells assessed as reduction in cell viability measured after 72 hrs by MTT assay
Type: toxicity, cell-based
Reported IC50 at 72 h is given for each of the following molecules.
# unit: µM | format: bare number

Examples with their reported IC50 at 72 h follow.
| molecule-smiles | units-symbol | IC50 at 72 h |
| --- | --- | --- |
| COc1ccccc1[C@H]1[C@H](C(=O)O)[C@H](c2ccccc2OC)[C@H]1C(=O)Oc1cc(-c2ccc3c(c2)OCO3)ccc1-c1ccccc1 | µM | 10.8 |
| COc1ccccc1[C@H]1[C@H](C(=O)O)[C@H](c2ccccc2OC)[C@H]1C(=O)OCC1c2ccccc2-c2ccccc21 | µM | 23 |

molecule "O=C(O)[C@H]1[C@H](c2ccccc2)[C@H](C(=O)Oc2cc(-c3ccc4c(c3)OCO4)ccc2-c2ccccc2)[C@H]1c1ccccc1" , IC50 at 72 h observed: 19.5
